experiment: Acumen qHTS Assay for Inhibitors of the mTORC1 Signaling Pathway in MEF (Tsc2-/-, p53-/-) Cells: Sytravon; conditions: phospho-rpS6 immunofluorescence/PI, 24 h; series mostly up to 38.3 µM; further: nearly all actives have a fitted effect of over 50% in size
The whole screen tested about 44,000 compounds, of which about 340 (0.77%) were called active. About 5% were inconclusive and are not listed. The call rests on the fitted dose curve; in most records, active means well fitted inhibition curve with a large enough effect; inconclusive means small, poorly fitted or top-dose-only effect; inactive means flat fitted curve, though single readings scatter. The full list was thinned out, with actives kept by preference.
API: response.call in active, inactive

Recorded results for 3 compounds are shown here.
> print(dat)
                                   compound       cat
1   COc1ccc(C)cc1NC(=O)COCc1cc(-c2cccs2)on1  inactive
2  Cc1oc2ccc(O)c(CN3CCOCC3)c2c1C(=O)Nc1cccc(Cl)c1C  inactive
3  Cc1cc(NC(=O)c2cccc(Cl)c2)ccc1-c1cc2ccccc2oc1=O  inactive

I would be grateful if you could indicate the recorded call for COc1ccc(CNC(=O)c2cc3cccc(OC)c3oc2=O)cc1 . inactive

I would be grateful if you could indicate the recorded call for CCOc1ccc(CNC(=O)c2ccc(CS(=O)c3ccccc3)o2)cc1 (stereo unspecified) . inactive

I would be grateful if you could indicate the recorded call for Cc1ccc(S(=O)(=O)c2nc(-c3ccco3)oc2SCC(=O)Nc2ccc(F)cc2)cc1 . inactive

I would be grateful if you could indicate the recorded call for COc1cc(OC)c(NC(=O)N2CC3CCCN3c3ccccc32)cc1Cl (stereo unspecified) . inactive

###

experiment: Acumen qHTS Assay for Inhibitors of the mTORC1 Signaling Pathway in MEF (Tsc2-/-, p53-/-) Cells: Sytravon; conditions: phospho-rpS6 immunofluorescence/PI, 24 h; series mostly up to 38.3 µM; further: nearly all actives have a fitted effect of over 50% in size
In all, about 44,000 compounds went through this assay and about 340 (0.77%) were called active. Roughly 5% stayed inconclusive and do not appear here. Calls follow the shape of the dose curve; as a rule, active = well fitted inhibition curve with a large enough effect; inconclusive = small, poorly fitted or top-dose-only effect; inactive = flat fitted curve, though single readings scatter. The sample as a whole holds a higher share of actives than the screen did.
API: response.call in class 1 = active, class 0 = inactive

> print(dat)
                                   compound      cat
1  COc1ccc(NC(=O)C2CCCN(S(=O)(=O)c3c(C)[nH]c(=O)[nH]c3=O)C2)c(OC)c1 (stereo unspecified)  class 0
2  Cc1ccc(-c2cn3c(n2)sc2cc(C(=O)NCCCc4ccccc4)ccc23)cc1  class 0

I would be grateful if you could indicate the recorded call for Cc1ccc(NC(=O)c2nc(S(=O)(=O)Cc3cccc(C)c3)ncc2Cl)cc1 . class 1

I would be grateful if you could indicate the recorded call for Cc1nc2ccn(Cc3cccs3)c(=O)c2cc1C(=O)NCc1ccc(Cl)cc1 . class 0

I would be grateful if you could indicate the recorded call for N#Cc1ccccc1Cn1cnc2nc3c(cc2c1=O)CCCC3 . class 0

I would be grateful if you could indicate the recorded call for COc1cc(NC(=O)c2nc3ccccc3nc2C)cc(OC)c1OC . class 0

I would be grateful if you could indicate the recorded call for Cc1ccc(S(=O)(=O)N(CC(=O)Nc2ccc(Cl)cc2Cl)c2ccccc2C)cc1 . class 0

I would be grateful if you could indicate the recorded call for Cc1ccc(NC(=O)c2cc3cc(C)ccc3n2C)cc1 . class 0

I would be grateful if you could indicate the recorded call for COc1ccccc1Nc1c2c(nc3ccc(NC(=O)/C=C/c4cc(OC)c(OC)c(OC)c4)cc13)CCCC2 . class 1

I would be grateful if you could indicate the recorded call for CC(C)(C)c1ccc(OCC(=O)N2CCC(c3nc4ccccc4s3)CC2)cc1 . class 0

I would be grateful if you could indicate the recorded call for Cc1ccc(Cn2c(=O)n(CCCC(=O)NCc3ccccc3Cl)c(=O)c3ccccc32)cc1 . class 0

Taken from PubChem BioAssay AID493208.
